# Lookup of reported pEC50 keyed by entry
molecular target: G-protein coupled receptor 84 (Homo sapiens, UniProt Q9NQS5); experiment: Agonist activity at GPR84 (unknown origin) expressed in doxycycline induced Flp-In-T-REx-293 cells transfected with GalphaI preincubated for 15 mins in presence of IBMX followed by forskolin stimulation for 45 mins by time-resolved fluorescence assay
Sequence (Q9NQS5 whole entry): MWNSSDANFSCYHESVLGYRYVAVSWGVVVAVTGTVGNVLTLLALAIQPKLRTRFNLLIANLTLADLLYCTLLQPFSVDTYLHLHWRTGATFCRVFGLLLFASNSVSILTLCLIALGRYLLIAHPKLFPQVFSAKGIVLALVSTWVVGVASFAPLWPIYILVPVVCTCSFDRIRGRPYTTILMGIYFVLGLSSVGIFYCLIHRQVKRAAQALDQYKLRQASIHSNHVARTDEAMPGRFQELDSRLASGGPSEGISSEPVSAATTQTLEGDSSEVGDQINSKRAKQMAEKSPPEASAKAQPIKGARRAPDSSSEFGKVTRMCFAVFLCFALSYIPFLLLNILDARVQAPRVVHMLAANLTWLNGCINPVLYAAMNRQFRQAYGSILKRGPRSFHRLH
pEC50: −log10 of the molar value.
parameter: pEC50

[[record]]
molecule = "O=c1cc(O)cc(-c2ccc(Oc3ccccc3)nc2)[nH]1"
parameter = "pEC50"
reportedvalue = 7.80

[[record]]
molecule = "CC(C)Cc1ccc(CCc2cc(O)cc(=O)[nH]2)cc1"
parameter = "pEC50"
reportedvalue = 8.17

[[record]]
molecule = "CCCCc1ccc(-c2cc(O)cc(O)n2)cc1"
parameter = "pEC50"
reportedvalue = 7.74

[[record]]
molecule = "O=c1cc(O)cc(-c2ccc(Oc3ccccc3)cc2)[nH]1"
parameter = "pEC50"
reportedvalue = 8.90

[[record]]
molecule = "CCCCCCCC#Cc1cc(O)cc(=O)[nH]1"
parameter = "pEC50"
reportedvalue = 7.84

[[record]]
molecule = "CCCc1ccc(CCc2cc(O)cc(=O)[nH]2)cc1"
parameter = "pEC50"
reportedvalue = 9.48

[[record]]
molecule = "CCOc1ccc(CCc2cc(O)cc(=O)[nH]2)cc1"
parameter = "pEC50"
reportedvalue = 7.80

[[record]]
molecule = "CCCCCc1ccc(-c2cc(O)cc(=O)[nH]2)cc1"
parameter = "pEC50"
reportedvalue = 7.71

[[record]]
molecule = "O=c1cc(O)cc(CCc2ccc3c(c2)Cc2ccccc2-3)[nH]1"
parameter = "pEC50"
reportedvalue = 5.78

